# Lookup of reported IC50 keyed by entry
Target: native human Bradykinin B1 receptor (Homo sapiens, UniProt P46663)
Construct: which express native human Bradykinin B1 receptor after induction with human IL-10; Coriell Institute
Sequence (P46663 1-353): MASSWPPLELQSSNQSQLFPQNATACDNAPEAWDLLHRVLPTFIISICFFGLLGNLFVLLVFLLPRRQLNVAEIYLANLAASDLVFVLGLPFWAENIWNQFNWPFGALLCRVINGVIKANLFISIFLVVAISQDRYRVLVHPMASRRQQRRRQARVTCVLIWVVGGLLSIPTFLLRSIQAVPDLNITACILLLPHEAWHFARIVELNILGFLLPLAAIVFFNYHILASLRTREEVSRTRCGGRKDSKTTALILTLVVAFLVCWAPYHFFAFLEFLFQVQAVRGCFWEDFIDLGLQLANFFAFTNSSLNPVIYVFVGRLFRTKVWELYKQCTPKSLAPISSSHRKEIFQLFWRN
Test: Calcium flux Assay (FLIPR) with human fibroblasts expressing Bradykinin B1 receptor (hB1 IMR-90)
Conditions: IMR-90 human fibroblasts expressing native Bradykinin B1 receptor
Respond numerically; units are nM and should not be typed.

Cn1ncc2ccc(-c3ccc(NC(=O)C4(c5cccc(Cl)c5)CC4)cc3-c3nnn[nH]3)cc21 24.7
CC(C)Oc1ccc(-c2ccc(NC(=O)C3(c4ccc(C(F)(F)F)cc4)CC3)cc2-c2nnn[nH]2)cn1 11.8
CCCOc1ccc(-c2ccc(NC(=O)C3(c4ccc(F)cc4F)CC3)cc2-c2nnn[nH]2)cn1 20.4

Query: Give IC50 for this entry on native human Bradykinin B1 receptor (Homo sapiens, UniProt P46663): `CCOc1ccc(-c2cc(O)c(NC(=O)C3(c4ccc(Cl)cc4)CC3)cc2-c2nnn[nH]2)cn1`
Reply: 177

Query: Give IC50 for this entry on native human Bradykinin B1 receptor (Homo sapiens, UniProt P46663): `O=C(Nc1ccc(-c2ccnc(C(F)(F)F)c2)c(-c2nnn[nH]2)c1)C1(c2ccc(OC(F)(F)F)cc2F)CC1`
Reply: 33.8

Query: Give IC50 for this entry on native human Bradykinin B1 receptor (Homo sapiens, UniProt P46663): `O=C(Nc1ccc(-c2ccc(C(F)(F)F)nc2)c(-c2nnn[nH]2)c1)C1(c2cccc(Cl)c2)CC1`
Reply: 91.8

====

# Lookup of reported IC50 keyed by entry
target: native human Bradykinin B1 receptor (Homo sapiens, UniProt P46663); construct: which express native human Bradykinin B1 receptor after induction with human IL-10; Coriell Institute; host or cells: IMR-90 human foetal lung fibroblasts, cytokine-induced; test: Calcium flux Assay (FLIPR) with human fibroblasts expressing Bradykinin B1 receptor (hB1 IMR-90); type: cell-based; conditions: IMR-90 human fibroblasts expressing native Bradykinin B1 receptor
Respond numerically; units are nM and should not be typed.

Example cases with answers are listed next.
COc1cnccc1-c1ccc(NC(=O)C2(c3cccc(Cl)c3)CC2)cc1-c1nnn[nH]1 164
CC(F)(F)c1ccc(-c2ccc(NC(=O)C3(c4cccc(Cl)c4)CC3)cc2-c2nnn[nH]2)cn1 50.9
CCOc1ccc(-c2ccc(NC(=O)C3(c4ccccc4F)CC3)cc2-c2nnn[nH]2)cn1 25.3

Next item in the queue.
Query: Name the recorded IC50 of the compound listed here: `O=C(Nc1ccc(-c2ccc(C(F)(F)F)nc2)c(-c2nnn[nH]2)c1)C1(c2ccc(Cl)cc2F)CC1`
Reply: 29.1

====

target: human Bradykinin B1 receptor (Homo sapiens); construct: host or cells: CHO-K1; assay: Calcium flux Assay (FLIPR) with recombinant CHO-K1 cells expressing human Bradykinin B1 receptor, in presence (hB1 IC50) or absence (hB1 free IC50) of 0.1% BSA; format: cell-based; conditions: in absence of 0.1% BSA, read-out: hB1 free IC50
# Lookup of reported log10 IC50 keyed by entry
Log scale reminder: IC50 in nM, then log10 taken.

Example cases with answers are listed next.
Molecule	Measured Target	log10 IC50
CC(C)c1cnn(-c2ccc(NC(=O)C3(c4cccc(Cl)c4)CC3)cc2-c2nnn[nH]2)c1	human Bradykinin B1 receptor (Homo sapiens)	1.49
COc1ccc(-c2ccc(NC(=O)C3(c4ccc(Cl)cn4)CC3)cc2-c2nnn[nH]2)cc1OC	human Bradykinin B1 receptor (Homo sapiens)	2.16
O=C(Nc1ccc(-c2cnc(C(F)(F)F)nc2)c(-c2nnn[nH]2)c1)C1(c2cccc(Cl)c2)CC1	human Bradykinin B1 receptor (Homo sapiens)	2.88
O=C(Nc1ccc(-c2ccc(C(F)(F)F)nc2)c(-c2nnn[nH]2)c1)C1(c2ccc(C(F)(F)F)cc2Cl)CC1	human Bradykinin B1 receptor (Homo sapiens)	0.89
COc1ccc(-c2ccc(NC(=O)C3(c4ccc(C)c(F)c4)CC3)cc2-c2nnn[nH]2)cc1OC	human Bradykinin B1 receptor (Homo sapiens)	1.75
COc1ccc(-c2ccc(NC(=O)C3(c4ccc(F)c(F)c4)CC3)cc2-c2nnn[nH]2)cc1OC	human Bradykinin B1 receptor (Homo sapiens)	1.41
CC(C)c1cnn(-c2ccc(NC(=O)C3(c4ccc(OC(F)(F)F)cc4F)CC3)cc2-c2nnn[nH]2)c1	human Bradykinin B1 receptor (Homo sapiens)	0.77
O=C(Nc1ccc(-n2cnc(C(F)(F)F)c2)c(-c2nnn[nH]2)c1)C1(c2ccc(C(F)(F)F)cc2F)CC1	human Bradykinin B1 receptor (Homo sapiens)	1.98

Query: Give log10 IC50 for this entry on human Bradykinin B1 receptor (Homo sapiens): `CS(=O)(=O)c1ccc(-c2ccc(NC(=O)C3(c4ccc(C(F)(F)F)cc4F)CC3)cc2-c2nnn[nH]2)cn1`
Reply: 2.57

Query: Give log10 IC50 for this entry on human Bradykinin B1 receptor (Homo sapiens): `CCOc1ccc(-c2ccc(NC(=O)C3(c4ccc(OC)c(F)c4)CC3)cc2-c2nnn[nH]2)cn1`
Reply: 1.61

Query: Give log10 IC50 for this entry on human Bradykinin B1 receptor (Homo sapiens): `O=C(Nc1ccc(-c2ccc(C(F)(F)F)nc2)c(-c2nnn[nH]2)c1)C1(c2ccc(Cl)cc2)CC1`
Reply: 1.96

Query: Give log10 IC50 for this entry on human Bradykinin B1 receptor (Homo sapiens): COc1ccc(-c2ccc(NC(=O)C3(c4ccccc4F)CC3(C)C)cc2-c2nnn[nH]2)cc1OC (centres unmarked)
Reply: 2.53

Query: Give log10 IC50 for this entry on human Bradykinin B1 receptor (Homo sapiens): `Cc1cc(-c2ccc(NC(=O)C3(c4ccc(C(F)(F)F)cc4F)CC3)cc2-c2nnn[nH]2)ccn1`
Reply: 0.44

Query: Give log10 IC50 for this entry on human Bradykinin B1 receptor (Homo sapiens): `Cn1ncc2ccc(-c3ccc(NC(=O)C4(c5cccc(Cl)c5F)CC4)cc3-c3nnn[nH]3)cc21`
Reply: 0.90

Query: Give log10 IC50 for this entry on human Bradykinin B1 receptor (Homo sapiens): `Cc1ccc(C2(C(=O)Nc3ccc(-n4ccc(C(C)(C)C)n4)c(-c4nnn[nH]4)c3)CC2)c(F)c1`
Reply: 2.41

Query: Give log10 IC50 for this entry on human Bradykinin B1 receptor (Homo sapiens): `CCOc1ccc(-c2ncc(NC(=O)C3(c4cccc(Cl)c4)CC3)cc2-c2nnn[nH]2)cn1`
Reply: 2.42

Query: Give log10 IC50 for this entry on human Bradykinin B1 receptor (Homo sapiens): `Cn1ncc2cc(-c3ccc(NC(=O)C4(c5cccc(Cl)c5)CC4)cc3-c3nnn[nH]3)ccc21`
Reply: 1.37

====

Target: human Bradykinin B1 receptor (Homo sapiens, UniProt P46663)
Construct: host or cells: CHO-K1
Sequence (P46663 1-353): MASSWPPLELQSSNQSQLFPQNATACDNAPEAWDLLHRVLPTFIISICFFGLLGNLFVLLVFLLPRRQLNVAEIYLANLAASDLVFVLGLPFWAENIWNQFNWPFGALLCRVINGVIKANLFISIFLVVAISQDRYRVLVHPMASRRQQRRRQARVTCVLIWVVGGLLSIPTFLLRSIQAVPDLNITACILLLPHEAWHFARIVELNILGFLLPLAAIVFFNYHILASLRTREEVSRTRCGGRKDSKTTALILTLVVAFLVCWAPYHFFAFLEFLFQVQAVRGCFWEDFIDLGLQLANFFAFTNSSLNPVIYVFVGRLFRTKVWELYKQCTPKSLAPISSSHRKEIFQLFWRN
Assay: Calcium flux Assay (FLIPR) with recombinant CHO-K1 cells expressing human Bradykinin B1 receptor, in presence (hB1 IC50) or absence (hB1 free IC50) of 0.1% BSA
Assay type: cell-based
Conditions: in absence of 0.1% BSA, read-out: hB1 free IC50
Test Readout: pIC50
pIC50 here: minus log base 10 of the concentration, concentration in moles per litre.

Example cases with answers are listed next.
Compound	pIC50
CC(C)(C)c1cn(-c2ccc(NC(=O)C3(c4ccc(F)c(F)c4)CC3)cc2-c2nnn[nH]2)cn1 [Example 401]	7.46
O=C(Nc1ccc(-c2ccnc(C(F)(F)F)c2)c(-c2nnn[nH]2)c1)C1(c2ccc(F)cc2F)CC1 [Example 178]	6.54
COc1cc(C2(C(=O)Nc3ccc(-c4ccnc(C(F)(F)F)c4)c(-c4nnn[nH]4)c3)CC2)ccc1F [Example 180]	6.11
CCOc1ccc(-c2ccc(NC(=O)C3(c4cccc(F)c4C)CC3)cc2-c2nnn[nH]2)cn1 [Example 256]	6.54
COc1cnccc1-c1ccc(NC(=O)C2(c3cccc(Cl)c3)CC2)cc1-c1nnn[nH]1 [Example 327]	7.15
COc1cc(C2(C(=O)Nc3ccc(-c4ccc(OC)c(OC)c4)c(-c4nnn[nH]4)c3)CC2)ccc1F [Example 33]	6.55

Next item in the queue.
Query: Name the recorded pIC50 of the compound listed here: CCOc1ccc(-c2ccc(NC(=O)C3(c4cc(F)cc(Cl)c4)CC3)cc2-c2nnn[nH]2)cn1 [Example 77]
Reply: 7.79
